As shown below, each of these binders has a reported cGMP Assay (EC50, pM) w/Casein value.
- System under test: T1, human NPRA (human, UniProt P16066 33-1061)
- T1 sequence (looked up): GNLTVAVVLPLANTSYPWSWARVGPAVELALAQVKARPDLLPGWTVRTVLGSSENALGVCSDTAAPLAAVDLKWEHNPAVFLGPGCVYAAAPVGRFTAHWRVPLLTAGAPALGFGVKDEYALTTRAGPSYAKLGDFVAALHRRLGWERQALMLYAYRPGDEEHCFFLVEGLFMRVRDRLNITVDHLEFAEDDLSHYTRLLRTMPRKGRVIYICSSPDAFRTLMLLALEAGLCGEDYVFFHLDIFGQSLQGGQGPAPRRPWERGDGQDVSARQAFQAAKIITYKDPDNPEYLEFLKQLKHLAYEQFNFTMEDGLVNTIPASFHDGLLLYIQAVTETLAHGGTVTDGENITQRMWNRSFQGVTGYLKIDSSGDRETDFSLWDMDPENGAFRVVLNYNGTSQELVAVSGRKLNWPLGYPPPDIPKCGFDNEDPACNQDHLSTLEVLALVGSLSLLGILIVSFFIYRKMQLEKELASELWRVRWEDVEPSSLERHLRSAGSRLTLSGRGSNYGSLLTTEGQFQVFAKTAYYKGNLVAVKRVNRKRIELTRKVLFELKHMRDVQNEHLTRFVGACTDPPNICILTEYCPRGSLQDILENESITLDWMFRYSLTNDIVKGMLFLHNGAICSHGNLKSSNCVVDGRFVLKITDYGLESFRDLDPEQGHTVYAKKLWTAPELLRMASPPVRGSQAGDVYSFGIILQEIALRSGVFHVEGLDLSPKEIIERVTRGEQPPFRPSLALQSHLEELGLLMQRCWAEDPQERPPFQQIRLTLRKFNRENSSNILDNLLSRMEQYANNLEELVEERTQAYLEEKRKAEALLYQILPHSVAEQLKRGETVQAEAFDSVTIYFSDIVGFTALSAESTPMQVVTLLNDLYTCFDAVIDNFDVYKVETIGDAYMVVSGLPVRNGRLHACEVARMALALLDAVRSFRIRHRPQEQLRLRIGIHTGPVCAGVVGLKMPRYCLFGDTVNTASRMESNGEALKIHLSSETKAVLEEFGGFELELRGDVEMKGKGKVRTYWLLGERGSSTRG
- Experimental protocol: cell-based or functional assay
Numbered stars: 1 amine (or outer) side, 2 acyl side, 3 side chain; on linkers, the order of the positions; unused ones are H or OH. Bridge positions count the residues as written; N and C are the ends. Square brackets hold non-standard residues; d marks the D form. * marks the point of attachment. thioacetal = thioacetal linkage between two cysteines (intrachain bond at the bracketed Cys); C20 diacid = O=C(O)CCCCCCCCCCCCCCCCCCC(=O)*; γGlu = O=C(O)[C@H](CCC(=O)[*:2])N[*:1]; βAla = NCCC(=O)O

Binder: {C20 diacid}-[γGlu]EKEKEKGEK[βAla]RSSCFGGRIDRIGHYSGLGCPSFRHGGKSSGAPPPS-NH2 (bridge 15-31 via thioacetal) [Example 76]
cGMP Assay (EC50, pM) w/Casein: 2620
//
Binder: SXRRSSCFGGRIDRIGHYSGLGCPSFRHGGKSSGAPPPS (HOOC-(CH2)18-CO-(γGlu)-EKEKEKG-PEG24-S-4Pal-RRSS[CFGGRIDRIGHYSGLGC]PSFRHGGKSSGAPPPS-NH2; thioacetal linkage between the bracketed Cys) [Example 95]
cGMP Assay (EC50, pM) w/Casein: 771
//
Binder: SXRRSSCFGGRIDRIGHQSGLGCPSFRHGGKSSGAPPPS (HOOC-(CH2)18-CO-(γGlu)-EKEKEKG-(AEEA)6-S-4Pal-RRSS[CFGGRIDRIGHQSGLGC]PSFRHGGKSSGAPPPS-NH2; thioacetal linkage between the bracketed Cys) [Example 86]
cGMP Assay (EC50, pM) w/Casein: 1020
//
Binder: {C20 diacid}-[γGlu]EKEKEKGEK[βAla]RSSCFGGRIDRIGHYSGLGCPSFRHGGKSSGAPPPS-NH2 (bridge 15-31 via thioacetal) [Example 74]
cGMP Assay (EC50, pM) w/Casein: 1590
//
Binder: XEKEKEKGSXKRSSCFGGRIDRIGHQSGLGCPSFRHGGPSSGAPPPS (HOOC-(CH2)18-CO-(γGlu)-EKEKEKGS-4Pal-KRSS[CFGGRIDRIGHQSGLGC]PSFRHGGPSSGAPPPS-NH2; disulfide linkage between the bracketed Cys) [Example 35]
cGMP Assay (EC50, pM) w/Casein: 118
//
Binder: XEKEKEKGRSSCFGGKIDRIGHYSGLGCPSFRHKGPSSGAPPPS (HOOC-(CH2)18-CO-(γGlu)-EKEKEKGRSS[CFGGKIDRIGHYSGLGC]PSFRHKGPSSGAPPPS-NH2; disulfide linkage between the bracketed Cys) [Example 47]
cGMP Assay (EC50, pM) w/Casein: 299
